// data source = the nanobody polyreactivity screen of Harvey et al. (2022)

TEST DETAILS: yeast display, Sf9 membrane polyspecificity reagent, FACS + sequencing; frameworks hold sequencing errors

| SEQUENCE RECORD | polyreactivity (PSR sort gate) |
| --- | --- |
| QVQLVESGGGLVQAGGSLRLSCAASGSIFGRNAMGWSRQAPGTERELVARISSRGGSTYYADSVKGRFTISRDNAKNTVYLQMNSLKPEDTAVYYCNRDRTWQTNDYWGQGTQVTVSS | high polyreactivity |
| QVQLVESGGGLVQAGGSLRLSCAASGRTFTGNVMGWYRQAPGKERELVAAISRRGGITYYADSVKGRFTISRDNAKNTVYLQMNSLKPEDTAVYYCDAYSWRRQGDHYDYWGQGTQVTVSS | high polyreactivity |
